target.entity: human MGL from HeLa cells (Homo sapiens (Human), UniProt Q99685)
Sequence (Q99685 whole entry): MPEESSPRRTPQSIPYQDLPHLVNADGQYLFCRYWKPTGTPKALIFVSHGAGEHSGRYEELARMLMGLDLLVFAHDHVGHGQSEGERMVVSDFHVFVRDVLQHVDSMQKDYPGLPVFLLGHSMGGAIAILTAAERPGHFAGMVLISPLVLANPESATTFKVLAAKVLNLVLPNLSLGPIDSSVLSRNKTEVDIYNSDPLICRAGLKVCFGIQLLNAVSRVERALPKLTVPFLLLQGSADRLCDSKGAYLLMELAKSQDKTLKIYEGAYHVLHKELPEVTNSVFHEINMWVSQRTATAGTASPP
test.details: MGL in vitro activity assay ([glycerol-1,3-3H]-oleoyl glycerol hydrolysis, activated carbon filtration)
assay.setup: 300 nM [Glycerol-1,3-3H]-oleoyl glycerol, one hour
pIC50: −log10 of the molar value.
experimental.endpoint: pIC50

Some compounds with known pIC50 results, for comparison:
>>> print(df.to_string())
                                   compound  experimental_endpoint  reported
0  Cc1c(OC2CC2)cccc1C1CCC2(CC1)CN(C(=O)[C@H]1C[C@@](C)(O)C1)C2 [Example 364]                  pIC50      8.54
1  COc1cc(Cl)cnc1OC1CCC2(CC1)CN(C(=O)[C@H]1C[C@@](C)(O)C1)C2 [Example 463]                  pIC50      8.01
2  CC(C)c1cccc(C2CCC3(C2)CN(C(=O)[C@H]2C[C@](O)(C(F)(F)F)C2)C3)c1 (mixture of isomers) [Example 88]                  pIC50      7.23

P. Cc1cnc(OC2CCC3(CC2)CN(C(=O)[C@H]2C[C@@](C)(O)C2)C3)c(F)c1 [Example 432]
Q. COc1cc(C2CCC3(CC2)CN(C(=O)[C@H]2C[C@@](C)(O)C2)C3)ccc1C [Example 129]
Request: Quick one: lower pIC50, P or Q ? Record your answer as the label of the chosen record.
Response: P

a. CCc1ccc(C(F)F)c(OC2CCC3(CC2)CN(C(=O)[C@H]2C[C@@](C)(O)C2)C3)n1 [Example 441]
b. C[C@]1(O)C[C@@H](C(=O)N2CC3(CCC(c4cn5c(n4)CCCC5)CC3)C2)C1 [Example 396]
c. COc1ccc(CC2CC3(C2)CN(C(=O)[C@H]2C[C@@](C)(O)C2)C3)c(C(F)(F)F)c1 [Example 217]
d. Cc1nc([C@@H](C)C2CC3(C2)CN(C(=O)[C@H]2C[C@@](C)(O)C2)C3)ccc1C(F)(F)F (stereo in doubt) [Example 313]
Request: Sort ascending by pIC50. Provide the ranking by listing each label in its place in the requested order.
Response: b, d, a, c

I. CC(C)(C)c1cccc([C@@H]2CCC3(C2)CN(C(=O)[C@H]2C[C@@](C)(O)C2)C3)c1 (stereo in doubt) [Example 44]
II. COc1cc(C2CC2)cc(C2CCC3(CC2)CN(C(=O)[C@H]2C[C@@](C)(O)C2)C3)c1 [Example 141]
III. Cc1ccc(OC2CCC3(C2)CN(C(=O)[C@H]2C[C@@](C)(O)C2)C3)cc1C(F)(F)F (mixture of isomers) [Example 256]
IV. Cn1cc(C2CCC3(CC2)CN(C(=O)[C@H]2C[C@@](C)(O)C2)C3)c2cccnc21 [Example 383]
Request: Sort ascending by pIC50. Provide the ranking by listing each label in its place in the requested order.
Response: IV, III, II, I
(IV: 6.74, III: 7.13, II: 7.70, I: 8.01)

a. COc1cc(C2CCC3(CC2)CN(C(=O)[C@H]2C[C@@](C)(O)C2)C3)cc(C(F)(F)F)c1 [Example 119]
b. Cc1cc(C2CC2)ccc1C1CCC2(C1)CN(C(=O)[C@H]1C[C@@](C)(O)C1)C2 (mixture of isomers) [Example 75]
Request: // compare measured pIC50, left a , right b , return larger Record your answer as the label of the chosen record.
Response: b
(b: 8.62, a: 7.92)
